TARGET_SYSTEM: T1, human transferrin receptor (hTfR) fused to EGFP, on CHO cells (human, UniProt P02786 1-760)
T1 construct: whole, on cells; also called human TfR; CHO-hTfR-EGFP; not shown: EGFP from pEGFP-C1 vector, fused to the N-terminal (intracellular) end of hTfR
T1 sequence (P02786 whole entry, the tested form may be a part): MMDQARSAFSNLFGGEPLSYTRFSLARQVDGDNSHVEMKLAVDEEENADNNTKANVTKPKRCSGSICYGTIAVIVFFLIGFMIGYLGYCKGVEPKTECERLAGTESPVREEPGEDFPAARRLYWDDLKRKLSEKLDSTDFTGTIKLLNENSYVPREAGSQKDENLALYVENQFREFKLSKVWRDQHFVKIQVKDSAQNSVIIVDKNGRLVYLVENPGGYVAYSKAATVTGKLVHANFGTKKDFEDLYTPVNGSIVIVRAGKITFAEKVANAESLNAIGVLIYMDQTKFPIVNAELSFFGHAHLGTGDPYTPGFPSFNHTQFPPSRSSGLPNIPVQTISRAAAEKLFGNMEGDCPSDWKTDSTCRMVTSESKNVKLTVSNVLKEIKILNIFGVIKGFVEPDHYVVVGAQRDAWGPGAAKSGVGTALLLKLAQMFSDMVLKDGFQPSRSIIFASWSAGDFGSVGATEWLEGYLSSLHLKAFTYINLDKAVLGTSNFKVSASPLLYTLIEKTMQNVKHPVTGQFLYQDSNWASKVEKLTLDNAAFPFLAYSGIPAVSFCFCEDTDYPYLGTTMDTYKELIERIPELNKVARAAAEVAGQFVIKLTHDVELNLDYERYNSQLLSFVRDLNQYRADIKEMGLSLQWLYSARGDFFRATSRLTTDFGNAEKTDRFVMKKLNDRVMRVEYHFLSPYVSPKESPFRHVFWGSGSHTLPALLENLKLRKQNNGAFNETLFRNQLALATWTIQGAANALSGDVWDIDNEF
EXPERIMENT_NOTES: apparent Kd, flow cytometry, CHO cells
Protocol: The binding properties of VHHs with affinity for the TfR from different species (i.e., human (h), mouse (m) and rhesus monkey (rh)) were tested using flow cytometry, and apparent affinities (Kd app) were determined. All experiments were performed in 96 well plates using 2×10⁵ cells/well, at 4° C. with shaking. […] Fluorescence levels were assessed using an Attune NxT flow cytometer (Thermo Fisher Scientific). […]
pKd: −log10 of the molar value.
Measured pKd of individual entries

BINDER | pKd
C5^h10 (VHH) VHH: EVQLVESGGGVVQPGGSLKLSCAASGTDFSINFIRWVRQAPGKGLEWVAGFTATGNTNYADSVKGRFTISRDNTKNTLYLQINSLRPEDTAVYYCYMLDKWGQGTQVTVSS | 5.97
B6^V3 (VHH) VHH: EVQLVESGGGLVQPGGSLRLSCTASGGPIEQYPMGWFRRAPGKERELVASSSRSGDGTYYAISSVKGRFTISRDNAENTVFLQMNSLKPDDTAVYYCGAGINPTKIWGQGTQVTVSS | 8.59
VHH A13 (C5^V13) (VHH) VHH: EVQLVESGGGVVQPGGSLKLSCVASGTDFSINFIRWYRQAPGKQREFVAGFSATGNTNYADSMKGRFTISRDNTKNAVYLQIDSLKPEDTAVYYCYMLDKWGQGTQVTVSS | 8.46
B8^V19 (VHH) VHH: EVQLVESGGGVVQPGGSLRLSCAASGEIFSINFMRWYRQAPGKQRHWVAGFTRDGSTNYPDSAKGRFTISRDNAKNTVYLQIDSLKPEDTAVYYCYMLDTWGQGTQVTVSS | 8.21
C5^h15 (VHH) VHH: EVQLVESGGGVVQPGGSLRLSCVASGTDFSINFIRWVRQAPGKGLEWVAGFTATGNTNYADSVKGRFTISRDNTKNTLYLQMDSLRPEDTAVYYCYMLDKWGQGTQVTVSS | 5.96
VHH D (H3) (VHH) VHH: EVQLVESGGGEVQPGGSLKLSCVASGTDFSINFVRWYRQRPGKQREWVAGFTANGDTNYPDSMKGRFTISRDNAKNTVYLQINSLKSEDTAVYYCYMLDNWGQGTQVTVSS | 8.72
VHH A8 (C5^V8) (VHH) VHH: EVQLVESGGGVVQPGGSLKLSCVASGTDFSINFIRWYRQAPGKQREFVAGFTATGNTNYADSMKGRFTISRDNTKNAVYLQIDSLKPEDTAVYYCYMLAKWGQGTQVTVSS | 7.64
B8^V22 (VHH) VHH: EVQLVESGGGVVQPGGSLRLSCAASGEIFSINQMRWYRQAPGKQREWVAGFTRDGSTNYPDSAKGRFTISRDNAKNTVYLQIDSLKPEDTAVYYCYMLDTWGQGTQVTVSS | 6.49
